# maps each entry to its HC90 (hemolytic concentration)
Tested on: pig erythrocytes
test_summary: Hemolytic activity on pig erythrocytes
Type: cell-based
conditions_used: 1 h at 37 °C, 6.25–100 µM, absorbance 570 nm, non-linear fit, n ≥ 3
No end group written: not given here.
Provide the reading as a plain figure in µM.

Example cases with answers are listed next.
ILSAIWSGIKSLF-NH2 [UyCT3] : 214.22
GFWGKLWEGVKSAI-NH2 [Um3] : 246.84
IFGAIWSGIKSLF-NH2 [D1] : 148.51

Given IFKAIWSGIKSLF-NH2 [Um5] , state its recorded HC90 (hemolytic concentration).
293.90

Then what about the substance IWSAIWSGIKGLL-NH2 [UyCT5] ?
177.49

Then what about the substance FLSTIWNGIKSLF-NH2 [D2] ?
200.83

Data credit: paper PMC5308254
